- EXPERIMENT_DESCRIPTION: Ratio of drug level in brain to plasma in C57BL/6 mouse at 300 umol/kg, po administered as single dose 15 mins after GF120918 90 umol/kg, po measured after […] by RPLC-MS/MS analysis
- Type: ADME, organism-based
- RUN_CONDITIONS: with GF120918 90 umol/kg po, read-out: BPR
METRIC_NAME: Kp at […]

NC1=N[C@](c2ccc(OC(F)F)cc2)(c2cccc(OCCCF)c2)C2=NCC(F)(F)CN12
2.34

###

- EXPERIMENT_DESCRIPTION: Drug uptake in C57BL/6 mouse brain at 300 umol/kg, po administered as single dose 15 mins after GF120918 90 umol/kg, po measured after […] by RPLC-MS/MS analysis
- Format: ADME, organism-based
- RUN_CONDITIONS: with GF120918 90 umol/kg po, read-out: Drug uptake
METRIC_NAME: concentration at […] (µM)

NC1=N[C@](c2ccc(OC(F)F)cc2)(c2cccc(OCCCF)c2)C2=NCC(F)(F)CN12
4
